Where these numbers come from: PubChem BioAssay AID1159580

# key: entry, value: normalized growth
Test: chemical genetic growth profiling, strain panel (AID 1159580);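 also: tested at 20 µM; growth read once vehicle control cultures reached saturation at 30 °C; 1 = growth at the plate median or of vehicle wells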
Conditions: S. cerevisiae deletion strains, growth OD, locus YKL067W, strain YNK1, stronger effect = lower value
Hit rate of the full screen: of about 5,500 compounds, about 2,000 (36%) were called active. Inconclusive results (about 18%) are left out. This is one part of the list.
REPORTED_ENDPOINT: normalized growth

1. Cc1cc(SCc2[nH]nc3oc(=O)cc(C)c23)c(Cl)cc1Cl 1.01
2. C/C(=N/NC(N)=S)c1ccccn1 0.951
3. CC1=CC(=O)C(CCOCCC2=CC(=O)C(C)=CC2=O)=CC1=O 0.857
4. C/C(=N/NC(N)=S)c1ccc(Oc2c(Cl)cncc2Cl)cc1 1.02
5. NC(N)=Nc1nc(-c2cc(Cl)sc2Cl)cs1 0.932
6. Cc1c(Cl)cccc1NC(=S)N1CCCN(c2nc3ccc(Cl)cc3s2)CC1 0.947

----------
Assay: chemical genetic growth profiling, strain panel (AID 1159580)
Conditions: S. cerevisiae deletion strains, growth OD, locus YAL021C, strain ccr4, stronger effect = lower value
The whole screen tested about 5,500 compounds, of which about 2,000 (36%) were called active. About 18% were inconclusive and are not listed. The list shows a part of the results.
Label MET when normalized growth is strictly below 1; otherwise label NOT MET.

MOLECULE	CLASS_ASSIGNMENT
CC1(C)C2CC[C@]3(C)C(C(=O)C=C4[C@@H]5C[C@@](C)(C(=O)O)CC[C@]5(C)CC[C@]43C)[C@@]2(C)CC[C@@H]1OC(=O)CCC(=O)O (stereo partly specified)	MET
CCCCCCCCCCCCCCCCOP(=O)([O-])OCC[N+](C)(C)C	MET
CN1CCc2cc3c(cc2C1O)OCO3 (stereo unspecified)	NOT MET
CCCCCCCC/C=C/CCCCCCCCOP(=O)([O-])OCC[N+](C)(C)C	MET
CCCCOc1ccc(C(=O)CCN2CCCCC2)cc1	MET
Cc1cc(C(C)(C)CC(C)(C)C)ccc1OCCOCC[N+](C)(C)Cc1ccccc1	MET
COc1cc2c(cc1OC)C(=O)C(CC1CCN(Cc3ccccc3)CC1)C2 (stereo unspecified)	MET
CC(C)(C)CC(C)(C)c1ccc(OCCOCC[N+](C)(C)Cc2ccccc2)cc1	MET
COc1ccc(-c2coc3c(O)c(OC)ccc3c2=O)cc1	MET
CCCCOc1ccc(OCCCN2CCOCC2)cc1	MET
CCN(CC)C(=S)SSC(=S)N(CC)CC	MET
CCSC(=N)N	NOT MET
Cc1ccc(O)cc1	NOT MET

----------
Experiment: chemical genetic growth profiling, strain panel (AID 1159580)
Conditions: S. cerevisiae deletion strains, growth OD, locus YBR279W, strain paf1, stronger effect = lower value
Among all 5,500 compounds or so, about 2,000 (36%) were called active. Roughly 18% stayed inconclusive and do not appear here. The list shows a part of the results.
Response field label: string, one of 1.0 (normalized growth strictly below 1) or 0.0.

COMPOUND	CLASS_ASSIGNMENT
C=CCc1ccc2c(c1)OCO2	0.0
O=C1C[C@@H](c2ccc(O)cc2)Oc2cc(O)cc(O)c21	1.0
COc1ccc(C2CC(=O)c3ccc(OC)cc3O2)cc1 (stereo unspecified)	1.0

----------
Assay: chemical genetic growth profiling, strain panel (AID 1159580)
Details: S. cerevisiae deletion strains, growth OD, locus YNL183C, strain NPR1, stronger effect = lower value
Out of some 5,500 compounds screened, about 2,000 (36%) were called active. Not shown: some 18% with an inconclusive outcome. The list shows a part of the results.
Lab note: compare normalized growth with 0.9, writing Satisfied if less and Not satisfied if equal or more.

MOLECULE	CLASS_ASSIGNMENT
COc1cc2c(cc1OC)C(=O)C(CC1CCN(Cc3ccccc3)CC1)C2 (stereo unspecified)	Not satisfied
CCN(CC)C(=S)SSC(=S)N(CC)CC	Satisfied
COc1cc(OC)c2c(c1)O[C@H](c1ccc(OC)c(OC)c1)[C@@H](O)C2	Not satisfied
Cc1c(N(C)C)c(=O)n(-c2ccccc2)n1C	Not satisfied
O=C(NCc1ccco1)c1ccc(Oc2cc(Cl)cc(Cl)c2)o1	Not satisfied
COc1ccc2c(c1)OC[C@@H](Cc1ccc(OC)c(OC)c1)[C@@H]2O	Not satisfied

----------
The following molecules are listed with their measured normalized growth values.
Assay: chemical genetic growth profiling, strain panel (AID 1159580)
Settings: S. cerevisiae deletion strains, growth OD, locus YEL061C, strain CIN8, stronger effect = lower value
Hit rate of the full screen: of about 5,500 compounds, about 2,000 (36%) were called active. Inconclusive results (about 18%) are left out. The list shows a part of the results.
REPORTED_ENDPOINT: normalized growth

MOLECULE	OBSERVED_MEASUREMENT
O=C(O)COCC(=O)N1CCc2c([nH]c3ccccc23)C1C(F)(F)F (stereo not given)	1.01
COC(=O)[C@H]1[C@H]2C[C@H]3c4[nH]c5ccccc5c4CCN3C[C@H]2CC[C@@H]1O	1.01
COC(=O)[C@@H]1C(O)CC[C@H]2CN3CCc4c([nH]c5ccccc45)[C@@H]3C[C@@H]21 (stereo not given in full)	0.998
O=C(O)CSCC(=O)N1CCc2c([nH]c3ccccc23)C1C(F)(F)F (stereo not given)	0.997
O=C(O)C1C(O)CCC2CN3CCc4c([nH]c5ccccc45)C3CC21 (stereo not given)	1.01

----------
Experiment: chemical genetic growth profiling, strain panel (AID 1159580);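 also: tested at 20 µM; growth read once vehicle control cultures reached saturation at 30 °C; 1 = growth at the plate median or of vehicle wells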
Settings: S. cerevisiae deletion strains, growth OD, locus YOR080W, strain dia2
Out of some 5,500 compounds screened, about 2,000 (36%) were called active. Inconclusive results (about 18%) are left out. Rule as the data show it: active = normalized growth mostly below about 0.91 (no sharp cut-off); inconclusive = no clear call, values can overlap the other calls; inactive = mostly above about 0.92. This is one part of the list.
Classes used: Y for active, N for inactive

COMPOUND	CLASS_ASSIGNMENT
O=C(O)C1CC([C@@H]2CCCCN2)CN2CCCCC12 (stereo partly specified)	N
OCCN(CCO)c1nc(N2CCCCC2)c2nc(N(CCO)CCO)nc(N3CCCCC3)c2n1	N
COc1ccc(C[C@H]2NC[C@H](O)[C@H]2OC(C)=O)cc1	N
O=C(O)c1ccccc1OP(=O)(O)O	N
COc1cc(OC)c2c(c1)O[C@H](c1ccc(OC)c(OC)c1)[C@@H](O)C2	N
COc1ccc2c(c1)C1(C)CCC(=O)CC1CC2 (stereo unspecified)	N
CC(C(=O)O)c1ccc2c(c1)[nH]c1ccc(Cl)cc12 (stereo unspecified)	N
CCN(CC)C(=S)SSC(=S)N(CC)CC	Y
Cc1c(N(C)C)c(=O)n(-c2ccccc2)n1C	N
COc1ccc2c(c1)OC[C@@H](Cc1ccc(OC)c(OC)c1)[C@H]2O	N
NC(=O)N1c2ccccc2CC(=O)c2ccccc21	N
COc1ccc2c(c1)[C@@]1(C)CCC(=O)C[C@H]1CC2	N
COc1ccc2c(c1)OC[C@@H](Cc1ccc(OC)c(OC)c1)[C@@H]2O	N
c1ccc(CC2=NCCN2)cc1	N
C[N+](C)(C)CCOP(=O)([O-])OP(=O)(O)OC[C@H]1OC(n2ccc(N)nc2=O)[C@H](O)[C@@H]1O (stereo partly specified)	N
NCC1CCCCC1CC(=O)O (stereo unspecified)	N

----------
Test: chemical genetic growth profiling, strain panel (AID 1159580);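 also: tested at 20 µM; growth read once vehicle control cultures reached saturation at 30 °C; 1 = growth at the plate median or of vehicle wells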
Details: S. cerevisiae deletion strains, growth OD, locus YDR162C, strain NBP2
The whole screen tested about 5,500 compounds, of which about 2,000 (36%) were called active. Roughly 18% stayed inconclusive and do not appear here. Cut-off read from the data, not from the text of the source: active = normalized growth mostly below about 0.91 (no sharp cut-off); inconclusive = no clear call, values can overlap the other calls; inactive = mostly above about 0.92. Some of the results follow.
Labels: True (active), False (inactive)

COMPOUND	CLASS_ASSIGNMENT
O=C(/C=C/C=C/c1ccc2c(c1)OCO2)N1CCCCC1	False
COc1ccc2c(c1)OC[C@@H](Cc1ccc(OC)c(OC)c1)[C@@H]2O	False
CCc1cccc(C)c1N(C(=O)CCl)C(C)COC (stereo unspecified)	False
COc1ccc2c(c1)OC[C@@H](Cc1ccc(OC)c(OC)c1)[C@H]2O	False
CN1CCc2cc3c(cc2C1O)OCO3 (stereo unspecified)	False
CNc1ccccc1C(=O)N1CCc2c([nH]c3ccccc23)C1=O	False
CN1Cc2c(ccc3c2OCO3)C2C(O)Cc3cc4c(cc3C21)OCO4 (stereo unspecified)	False
O[C@H]1C=C2CCN3Cc4cc5c(cc4C(C23)[C@@H]1O)OCO5 (stereo partly specified)	True
COc1ccc(CC2c3cc(OC)c(OC)cc3CCN2C)cc1OC (stereo unspecified)	False
COC(=O)C1[C@H]2C[C@H]3c4[nH]c5ccccc5c4CCN3C[C@@H]2CC[C@@H]1O (stereo partly specified)	False
O=C(O)C1C(O)CCC2CN3CCc4c([nH]c5ccccc45)C3CC21 (stereo unspecified)	False

----------
Assay: chemical genetic growth profiling, strain panel (AID 1159580);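 also: tested at 20 µM; growth read once vehicle control cultures reached saturation at 30 °C; 1 = growth at the plate median or of vehicle wells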
Details: S. cerevisiae deletion strains, growth OD, locus YLR342W, strain FKS1 (second series), stronger effect = lower value
The whole screen tested about 5,500 compounds, of which about 2,000 (36%) were called active. Another 18% or so got no clear call; they are omitted. The list shows a part of the results.

MOLECULE	normalized growth
COC(=O)COc1ccc(Cl)cc1Cl	1.01
C1CCc2nnnn2CC1	1.01
CCCCCC(C)N (configuration not stated)	1.03
COc1ccc(C[C@H]2NC[C@H](O)[C@H]2OC(C)=O)cc1	0.126
O=C(O)c1cc(=O)c2ccc(Cl)cc2[nH]1	0.957
N#Cc1c(Cl)c(Cl)c(Cl)c(C#N)c1Cl	0.993
CC(=O)O[C@@](C)(CCC=C(C)C)C1CC=C(C)CC1 (some centres not stated)	1.09
